Assay: melting temperature; fluorescence melt of hairpins on a sequencing array, two-state fit, raised by 9.35 °C to match UV melts
Details: sodium 0.088 M
Parameter: Tm
Show the value, then the unit it is measured in.

{"Sequence Record": "GTGAGTCGAAAGACCAC (((.(((....))))))", "Parameter": "Tm", "Test Result": "53 °C"}
{"Sequence Record": "GGTTCAGGAAACTGAACC (((((((....)))))))", "Parameter": "Tm", "Test Result": "63.8 °C"}
{"Sequence Record": "GTCGGACGAAAGTCGAC (((.(((....))))))", "Parameter": "Tm", "Test Result": "56.9 °C"}
{"Sequence Record": "GATAACGAAAGTTTATC ((((((....))).)))", "Parameter": "Tm", "Test Result": "31.8 °C"}

Incoming: State the recorded Tm for this entry: GCGACCAATCGC ((((....))))
Outgoing: 44 °C

Incoming: State the recorded Tm for this entry: GCGGGTGCCCGC ((((....))))
Outgoing: 57.4 °C

* * *

Assay: melting temperature; fluorescence melt of hairpins on a sequencing array, two-state fit, raised by 9.35 °C to match UV melts
Details: sodium 0.088 M
Rule: measured Tm below 40 °C gets t; anything equal to or greater than 40 °C gets f.

Would you please look over these solved cases?
{"Sequence Record": "CGATACGGAAACGTCTCG (((.(((....))).)))", "Answer Label": "f"}
{"Sequence Record": "GCCGCGCGAAAGCACTGC ((.(.((....)).).))", "Answer Label": "t"}
{"Sequence Record": "GCGAAGCATCGC ((((....))))", "Answer Label": "f"}
{"Sequence Record": "GCTTGCGAAAGCAACAGC ((((((....)))..)))", "Answer Label": "f"}
{"Sequence Record": "GGTGGAGGAAACTCCACC (((((((....)))))))", "Answer Label": "f"}

Now take the following sequence into account.
Incoming: Does this sequence meet the criterion Tm < 40 °C? GATCCAGCTGTGGATC ((((((....))))))
Outgoing: f

* * *

Assay: melting temperature; fluorescence melt of hairpins on a sequencing array, two-state fit, raised by 9.35 °C to match UV melts
Details: sodium 0.088 M
Item-by-item account of Tm
A number alone suffices; assume °C.

{"Sequence Record": "GATCCCGAAAGGGACATC ((((((....)))..)))", "Tm / °C": 30.9}
{"Sequence Record": "GCGGGTGTCCGC ((((....))))", "Tm / °C": 58.2}
{"Sequence Record": "GGCTTGGCGAAAGCCGCC (((..(((....))))))", "Tm / °C": 68.8}
{"Sequence Record": "GTTCCCGAAAGGGGAAAC ((((((....)))..)))", "Tm / °C": 37.2}
{"Sequence Record": "GAAGCGGGAAACCGCTCC (.(((((....))))).)", "Tm / °C": 42.5}

As a next step, examine the sequence that follows.
Incoming: State the recorded Tm for this entry: GATCTATATTAGATC ((((((...))))))
Outgoing: 40.9

* * *

Test: folding enthalpy; higher = less favourable; fluorescence melt of hairpins on a sequencing array, two-state fit
Settings: sodium 0.088 M
Output TRUE for folding enthalpy not less than -20 kcal/mol; output FALSE otherwise.

{"Sequence Record": "CGAGCGGAAACGCTATCG ((((((....)))..)))", "Answer Label": "TRUE"}
{"Sequence Record": "CGTCACCGGAAACGGACG (((..(((....))))))", "Answer Label": "FALSE"}
{"Sequence Record": "GCGCGCGAAAGCGGTCGC ((((((....)))..)))", "Answer Label": "TRUE"}
{"Sequence Record": "GCTCCCGAAAGGGTAAGC ((((((....)))..)))", "Answer Label": "FALSE"}
{"Sequence Record": "GGGGACCGAAAGGTTCCC (((.(((....))).)))", "Answer Label": "FALSE"}
{"Sequence Record": "GCTGGCGAAAGCCAGAGC ((((((....)))..)))", "Answer Label": "TRUE"}

Incoming: Decide: is the reported value of folding enthalpy for GAGTATGGAAACATATTC ((.((((....)))).)) equal to or greater than -20 kcal/mol?
Outgoing: FALSE

Incoming: Decide: is the reported value of folding enthalpy for GACAACGAAAGTTTAGTC ((((((....)))..))) equal to or greater than -20 kcal/mol?
Outgoing: TRUE

Incoming: Decide: is the reported value of folding enthalpy for GACACGGAAACGTGTC ((((((....)))))) equal to or greater than -20 kcal/mol?
Outgoing: FALSE

Incoming: Decide: is the reported value of folding enthalpy for GATCACAGGGTGATC ((((((...)))))) equal to or greater than -20 kcal/mol?
Outgoing: FALSE

Incoming: Decide: is the reported value of folding enthalpy for GTGGGAGGAAACTCTCGC (.(.(((....))).).) equal to or greater than -20 kcal/mol?
Outgoing: FALSE

Incoming: Decide: is the reported value of folding enthalpy for GAGTGCACGAAAGTGCTC (((..(((....)))))) equal to or greater than -20 kcal/mol?
Outgoing: TRUE

* * *

Experiment: folding enthalpy; higher = less favourable; fluorescence melt of hairpins on a sequencing array, two-state fit
Conditions: sodium 0.088 M
Parameter: folding enthalpy (kcal/mol)
A number alone suffices; assume kcal/mol.

Incoming: State the recorded folding enthalpy for this entry: GCTCGCGGAAACGCGAAC (.(((((....))))).)
Outgoing: -11.3

Incoming: State the recorded folding enthalpy for this entry: GCCGTGCCGAAAGGCGGC (((..(((....))))))
Outgoing: -13.9

Incoming: State the recorded folding enthalpy for this entry: GGCCTCGGAAACAAGGCC (((((.(....).)))))
Outgoing: -34.5

* * *

Item-by-item account of folding enthalpy
Assay: folding enthalpy; higher = less favourable; fluorescence melt of hairpins on a sequencing array, two-state fit
Details: sodium 0.088 M
A number alone suffices; assume kcal/mol.

Use these answered entries as a reference point.
{"Sequence Record": "GACAACGGAAACGTTGCC (.(((((....))))).)", "Test Result": -17.4}
{"Sequence Record": "GCGGCCGAAAGGCATCGC ((((((....)))..)))", "Test Result": -23}
{"Sequence Record": "GTGCACGAAAGTGTACAC ((((((....)))..)))", "Test Result": -17.1}
{"Sequence Record": "GATCTTTGCCAAGATC ((((((....))))))", "Test Result": -29.7}
{"Sequence Record": "GATCCCTCAGGGATC ((((((...))))))", "Test Result": -37.2}

Incoming: State the recorded folding enthalpy for this entry: GCCACAGGAAACTGCGGC (((.(((....))).)))
Outgoing: -56.4

Incoming: State the recorded folding enthalpy for this entry: GCAGAGCGAAAGCCCGGC ((.(.((....)).).))
Outgoing: -17.9

Incoming: State the recorded folding enthalpy for this entry: GATCGTTCCACGATC ((((((...))))))
Outgoing: -40.1

Incoming: State the recorded folding enthalpy for this entry: GGGCCCGAAAGGGAGCCC ((((((....)))..)))
Outgoing: -23.8

* * *

Assay: melting temperature; fluorescence melt of hairpins on a sequencing array, two-state fit, raised by 9.35 °C to match UV melts
Conditions: sodium 0.088 M
Output rule met for Tm not less than 50 °C; output rule not met otherwise.

Would you please look over these solved cases?
{"Sequence Record": "GATCTGTCGACAGATC ((((((....))))))", "Answer Label": "rule met"}
{"Sequence Record": "GATCCGTTAGCGGATC ((((((....))))))", "Answer Label": "rule met"}

Now take the following sequence into account.
Incoming: Decide: is the reported value of Tm for GACGACGAAAGTCGTGTC ((((((....)))..))) equal to or greater than 50 °C?
Outgoing: rule met

* * *

Assay: melting temperature; fluorescence melt of hairpins on a sequencing array, two-state fit, raised by 9.35 °C to match UV melts
Details: sodium 0.088 M
Item-by-item account of Tm
Show the value, then the unit it is measured in.

Use these answered entries as a reference point.
{"Sequence Record": "GAGGAGGCGAAAGCCCTC (((..(((....))))))", "Test Result": "44.1 °C"}
{"Sequence Record": "GCCGGTCGAAAGACAGGC (((.(((....))).)))", "Test Result": "69 °C"}
{"Sequence Record": "GACTTGACGAAAGTCGTC (((..(((....))))))", "Test Result": "51.7 °C"}
{"Sequence Record": "GTCGGCGAAAGCCCTGAC ((((((....)))..)))", "Test Result": "35.6 °C"}
{"Sequence Record": "GATCTGGGGTCAGATC ((((((....))))))", "Test Result": "48.7 °C"}

Incoming: State the recorded Tm for this entry: GGATCACGAAAGTGTCC (((.(((....))))))
Outgoing: 49.8 °C

Incoming: State the recorded Tm for this entry: GACTTCCGAAAGGAGTC (((.(((....))))))
Outgoing: 46.4 °C

Incoming: State the recorded Tm for this entry: GCACTGCGAAAGCGCTGC (((..((....))..)))
Outgoing: 42.6 °C
